Taken from patent US20110105724A1.

# Target under test: T1, human IL-8 (interleukin-8) (human, UniProt P10145 28-99, limits assumed)
# T1 construct: also called recombinant human IL-8
# T1 sequence (looked up): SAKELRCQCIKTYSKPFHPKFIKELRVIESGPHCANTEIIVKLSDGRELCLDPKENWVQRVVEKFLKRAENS
# Test description: SPR (Biacore T100, 25 C), antibody captured on anti-human IgG, IL-8 as analyte, 1:1 model, Run 1
Catalogue of Kd readings, one per entry.
Quick reminder: number only, in nM, skip the unit.

{"columns": ["Binder", "Quantitative readout"],
 "data": [
  ["humanized antibody A1L0 (antibody, human IgG1, kappa, V domains shown, Humanized 1C1.5E5, human IgG1/kappa; also called AIL0) VH: QVQLVQSGAEVKKPGASVKVSCKASGYTFTSYWMHWVRQAPGQGLEWMGEIDPSDSNTNYNQKFKGKVTMTRDTSISTAYMELSRLRSDDTAVYYCARELLHAVYWGQGTLVTVSS VL: DIQMTQSPSSLSASVGDRVTITCTASQDIHKYISWYQQKPGKAPKLLIYDTSTLQPGVPSRFSGSGSGTDFTFTISSLQPEDIATYYCLQYDNLWTFGQGTKVEIKR", 0.0872],
  ["chimeric antibody HcLc made from murine 1C1.5E5 (antibody, human IgG1, kappa, V domains shown, Murine variable regions on human IgG1 and human kappa constant regions; also called chimera) VH: QVQLQQPGVELVMPGASVKLSCKASGYTFTSYWMHWVKQRPGQGLEWIGEIDPSDSNTNYNQKFKGKATLTLDKSSSTAYMQLTSLTSEDSAVYYCARELLHAVYWGQGTLVTVSS VL: DIQMTQSPSSLSASLGGKVTITCTASQDIHKYISWFQHKPGKGPRLLIHYTSTLQPGIPSRFSGSGSGRDYSFSISNLEPEDVATYYCLQYDNLWTFGGGTKLDIKR", 0.0184]
]}

**Q:** Tell me the measured Kd of humanized antibody A0L0 (antibody, human IgG1, kappa, V domains shown, Humanized 1C1.5E5, human IgG1/kappa) VH: QVQLVQSGAEVKKPGASVKVSCKASGYTFTSYWMHWVRQAPGQGLEWMGEIDPSDSNTNYNQKFKGRVTMTRDTSISTAYMELSRLRSDDTAVYYCARELLHAVYWGQGTLVTVSS VL: DIQMTQSPSSLSASVGDRVTITCTASQDIHKYISWYQQKPGKAPKLLIYDTSTLQPGVPSRFSGSGSGTDFTFTISSLQPEDIATYYCLQYDNLWTFGQGTKVEIKR , please.
**A:** 0.0712
